The entries below are paired with their reported Inhibition.
system: Klebsiella pneumoniae; conditions: Concentration 20 uM; ASSAY_TEST Inhibition of Bacterial Growth; detection method Absorption (OD600); MEDIA CAMHB; plate type 384well; NBS; CORNING #3640; time 18 hr
Description: Antibacterial activity against Klebsiella pneumoniae MDR ATCC 70063 (CO-ADD:GN_003); MIC in CAMBH media using NBS plates, by OD(600)
Measured potencies and affinities stand elsewhere.

>  <compound>
CC(=O)N1CCc2cc3nc(C)cc(C)c3cc21

>  <unit>
%

>  <Inhibition>
14.03

$$$$
>  <compound>
C[C@H](c1ccc2c(c1)CCCC2)N(C)c1ncc2c(N)nc(N)nc2n1

>  <unit>
%

>  <Inhibition>
18.37

$$$$
>  <compound>
Cc1ccc2nc(C)c(-c3ccn(Cc4ccccc4)n3)n2c1

>  <unit>
%

>  <Inhibition>
14.88

$$$$
>  <compound>
CNc1nnc(Sc2cnn(-c3ccccc3)c(=O)c2Cl)s1

>  <unit>
%

>  <Inhibition>
0.48

$$$$
>  <compound>
Cc1cc(NC(=O)c2ccc(S(=O)(=O)N(Cc3ccccc3)C(C)C)cc2)no1

>  <unit>
%

>  <Inhibition>
8.9

$$$$
>  <compound>
CN1CCN(c2nccc3[nH]c(-c4cccc(F)c4)cc23)CC1

>  <unit>
%

>  <Inhibition>
12.23

$$$$
>  <compound>
COc1ccccc1OCCCCn1c(C2CC2)nc2ccccc21

>  <unit>
%

>  <Inhibition>
10.24

$$$$
>  <compound>
CC(C(=O)N1CCCC1)N1CCN(S(=O)(=O)c2ccc(C(C)(C)C)cc2)CC1 (stereo unspecified)

>  <unit>
%

>  <Inhibition>
0.26

$$$$
>  <compound>
Cc1ccc2nc(Cl)c(CNCc3cccs3)cc2c1

>  <unit>
%

>  <Inhibition>
1.61

$$$$
>  <compound>
CN1CCC(c2cc(-c3ccncc3)c(-c3ccc(F)cc3)[nH]2)CC1

>  <unit>
%

>  <Inhibition>
5.43

$$$$
>  <compound>
CNC(=O)CNc1nc(-c2ccccn2)nc2scc(-c3ccccc3)c12

>  <unit>
%

>  <Inhibition>
15.46

$$$$

###

The entries below are paired with their reported Inhibition.
tested on: Candida albicans; settings: 20 µM
Description: Antifungal activity against Candida albicans ATCC 90028 (CO-ADD:FG_001); MIC in YNB media using NBS plates, by OD630
Potency and affinity values are given separately.

>  <molecule>
O=C(C1CCN(c2cc(-n3cccc3)ncn2)CC1)N1CCc2ccccc2C1

>  <Inhibition, %>
10

$$$$
>  <molecule>
CCOc1ccc2cc(-c3nn(CC4CCN(C)CC4)c4ncnc(N)c34)ccc2c1.Cl

>  <Inhibition, %>
4.38

$$$$
>  <molecule>
O=C(Nc1nnc(S)s1)c1cc(Br)ccc1Cl

>  <Inhibition, %>
4.73

$$$$
>  <molecule>
CC(Oc1cccc(Cl)c1)C(=O)Nc1ccc2oc(-c3ccncc3)nc2c1 (stereo unspecified)

>  <Inhibition, %>
6.74

$$$$
>  <molecule>
Cl.Cn1ccnc1CNCCS(=O)(=O)c1cccc(Nc2ccc(-c3cccc(F)c3)cn2)c1

>  <Inhibition, %>
4.46

$$$$
>  <molecule>
CCc1nc2ccccc2n1CC(O)COc1cc(C)ccc1Cl (stereo unspecified)

>  <Inhibition, %>
1.23

$$$$
>  <molecule>
CCOc1ccccc1C(=O)Nc1cccc(-c2nc3ncccn3c2C)c1

>  <Inhibition, %>
6.34

$$$$
>  <molecule>
CN1CCC(c2cc(-c3ccncc3)c(-c3ccc(F)cc3)[nH]2)CC1

>  <Inhibition, %>
0.45

$$$$
>  <molecule>
CNC1C(OC2C(OC3C(O)C(O)C(NC(=N)N)C(O)C3NC(=N)N)OC(C)C2(O)C=O)OC(CO)C(O)C1O.CNC1C(OC2C(OC3C(O)C(O)C(NC(=N)N)C(O)C3NC(=N)N)OC(C)C2(O)C=O)OC(CO)C(O)C1O.O=S(=O)(O)O.O=S(=O)(O)O.O=S(=O)(O)O (stereo unspecified)

>  <Inhibition, %>
2.09

$$$$
>  <molecule>
CC(C)(C)c1ccc(N[C@@H]2CCCC[C@H]2NC(=O)c2ccco2)cc1

>  <Inhibition, %>
5.24

$$$$
>  <molecule>
COc1ccc(Oc2ccc([C@@H](C)N(C)c3ncc4c(N)nc(N)nc4n3)cc2)cc1

>  <Inhibition, %>
5.99

$$$$
>  <molecule>
CNc1snc(C)c1C(=O)NCCOc1ccc(OC)cc1

>  <Inhibition, %>
3.15

$$$$
>  <molecule>
FC(F)(F)c1ccc(N(c2cccnc2)C2CCN(c3ccc(C(F)(F)F)cn3)CC2)cc1

>  <Inhibition, %>
2.59

$$$$
>  <molecule>
O=C(C1CCN(c2nnc(-n3cccc3)s2)CC1)N1CCC(Cc2ccccc2)CC1

>  <Inhibition, %>
4.63

$$$$
>  <molecule>
O=C(c1ccc(NCCO)cc1)C1C[C@H]1c1ccc(Cl)cc1 (stereo partly specified)

>  <Inhibition, %>
6.88

$$$$
>  <molecule>
CC(C(=O)N1CCCC1)N1CCN(S(=O)(=O)c2ccc(C(C)(C)C)cc2)CC1 (stereo unspecified)

>  <Inhibition, %>
2.42

$$$$
>  <molecule>
Cc1ccc2cc(C3NC(=O)c4ccccc4N3)c(Cl)nc2c1 (stereo unspecified)

>  <Inhibition, %>
3.16

$$$$
>  <molecule>
O=C(c1cc2ccccc2o1)N1CCN(Cc2ccc3c(c2)OCO3)CC1

>  <Inhibition, %>
-0.54

$$$$
>  <molecule>
Nc1nccc2ccc(-c3ccc4nccn4c3)cc12

>  <Inhibition, %>
2.07

$$$$
>  <molecule>
O=C(NCCN1CCCC1)c1cc(NCCN2CCOCC2)nc2ccc(Cl)cc12

>  <Inhibition, %>
2.97

$$$$
>  <molecule>
COc1ccc(C2=NN(C3CCCCCC3)C(=O)[C@@H]3CC=CC[C@H]23)cc1OCCCCOc1ccc(-c2nnn[nH]2)cc1

>  <Inhibition, %>
6.64

$$$$

###

test system: Candida albicans; conditions: 20 µM
Entries with a potency or affinity are not part of this list.
Binary call on Inhibition: True from 4% upward, False beneath that.

>  <compound>
Cc1cccc(NC(=O)c2cc(S(=O)(=O)N(C)c3ccc(F)cc3)ccc2Cl)n1

>  <target_or_test_system>
Candida albicans

>  <class_label>
True

$$$$
>  <compound>
Cc1ccc2oc(-c3cc(NC(=O)Cc4ccccc4)ccc3Cl)nc2c1

>  <target_or_test_system>
Candida albicans

>  <class_label>
True

$$$$
>  <compound>
c1ccc(Oc2ccc(-c3cncc(-c4ccc5[nH]ccc5c4)n3)cc2)cc1

>  <target_or_test_system>
Candida albicans

>  <class_label>
True

$$$$
>  <compound>
O=C(Nc1ccccc1-c1nc2c(C(=O)O)cccc2o1)c1ccccc1

>  <target_or_test_system>
Candida albicans

>  <class_label>
True

$$$$
>  <compound>
CCCCc1ccc(NC(=O)Nc2ccc(O[C@H]3CCCC[C@@H]3N(C)c3ccccc3)c(F)c2)cc1

>  <target_or_test_system>
Candida albicans

>  <class_label>
False

$$$$
>  <compound>
O=C(NC1CCN(c2ccnc3ccccc23)C1)c1cccc(C(F)(F)F)c1 (configuration not stated)

>  <target_or_test_system>
Candida albicans

>  <class_label>
False

$$$$
>  <compound>
Cc1ccc(-c2cc(C(=O)Nc3cccnc3)c3cc(Br)ccc3n2)cc1

>  <target_or_test_system>
Candida albicans

>  <class_label>
True

$$$$
>  <compound>
CCCS(=O)(=O)N1CCC(CO)(Cc2ccccc2C(F)(F)F)CC1

>  <target_or_test_system>
Candida albicans

>  <class_label>
False

$$$$
>  <compound>
CC(=O)O.CC(=O)O.Nc1ncnc2c1ncn2[C@@H]1O[C@H](COS(=O)(=O)NC(=O)c2ccccc2O)[C@@H](O)[C@H]1O

>  <target_or_test_system>
Candida albicans

>  <class_label>
False

$$$$
>  <compound>
Cc1ccc(Oc2ccc(NC(=O)CNc3ccccc3N3CCCC3=O)cc2)cc1

>  <target_or_test_system>
Candida albicans

>  <class_label>
False

$$$$
>  <compound>
CC(=O)N1CCc2cc3nc(C)cc(C)c3cc21

>  <target_or_test_system>
Candida albicans

>  <class_label>
True

$$$$
>  <compound>
CN1CCN(c2nccc3nc(-c4ccc(F)c(F)c4)[nH]c23)CC1

>  <target_or_test_system>
Candida albicans

>  <class_label>
False

$$$$
>  <compound>
N#CCN(CCCCN1CCN(c2ccc(F)cc2)CC1)C(=O)OCc1ccccc1

>  <target_or_test_system>
Candida albicans

>  <class_label>
False

$$$$
>  <compound>
Cc1cc(OCC(=O)NCc2ccccc2)c2cc(Br)ccc2n1

>  <target_or_test_system>
Candida albicans

>  <class_label>
False

$$$$
>  <compound>
Cl.Cl.Cl.NS(=O)(=O)c1cncc(-c2ccc3nccc(-c4cn[nH]c4)c3n2)c1

>  <target_or_test_system>
Candida albicans

>  <class_label>
False

$$$$
>  <compound>
CC1CCCCN1C(=O)NCCc1coc(-c2ccc(F)cc2)n1 (configuration not stated)

>  <target_or_test_system>
Candida albicans

>  <class_label>
False

$$$$
>  <compound>
CC1=NN(c2nc3ccccc3s2)C(=O)C1Cc1cccc2ccccc12 (configuration not stated)

>  <target_or_test_system>
Candida albicans

>  <class_label>
True

$$$$
>  <compound>
CC(C)(C)n1nc(Cc2cccc3ccccc23)c2c(N)ncnc21

>  <target_or_test_system>
Candida albicans

>  <class_label>
False

$$$$
>  <compound>
O=C1N(Cc2cc3ccccc3s2)CC2CN(Cc3ccccc3)CCN12 (configuration not stated)

>  <target_or_test_system>
Candida albicans

>  <class_label>
False

$$$$
>  <compound>
c1ccc2c(c1)CN(CC1CC1)CC1(CCN(Cc3c[nH]c4cnccc34)CC1)O2

>  <target_or_test_system>
Candida albicans

>  <class_label>
True

$$$$
>  <compound>
Cc1nc(-c2cccc(NCc3ccccc3)c2)[nH]c1C

>  <target_or_test_system>
Candida albicans

>  <class_label>
False

$$$$
>  <compound>
Cc1nn(C(=O)Nc2cccc(C(F)(F)F)c2)c(C)c1Sc1ncccn1

>  <target_or_test_system>
Candida albicans

>  <class_label>
False

$$$$
>  <compound>
Cc1cc2ccccc2n1CC(=O)N1CC(C(=O)N2CCCCC2)Oc2ccccc21 (configuration not stated)

>  <target_or_test_system>
Candida albicans

>  <class_label>
True

$$$$
>  <compound>
Cc1cnc(N2CCN[C@@H](Cc3ccccc3)C2)nc1Oc1ccc(-n2ccnc2)cc1.Cl

>  <target_or_test_system>
Candida albicans

>  <class_label>
False

$$$$
>  <compound>
COc1cc(C(F)(F)F)nc2ccc(C)c(N)c12

>  <target_or_test_system>
Candida albicans

>  <class_label>
True

$$$$
>  <compound>
CC(C)(C)c1cnc(NC(=O)c2ccccc2O)s1

>  <target_or_test_system>
Candida albicans

>  <class_label>
True

$$$$
>  <compound>
COc1ccc(-c2nnc3ccc(-c4cccc(C(C)C)c4)cn23)cc1OC

>  <target_or_test_system>
Candida albicans

>  <class_label>
True

$$$$
>  <compound>
COc1ccc(N(CCc2cccc(C)n2)C(C)=O)cc1

>  <target_or_test_system>
Candida albicans

>  <class_label>
False

$$$$
>  <compound>
O=C(C1CCN(c2nnnn2-c2ccccc2)CC1)N1CCc2ccccc2C1

>  <target_or_test_system>
Candida albicans

>  <class_label>
False

$$$$
>  <compound>
COC(=O)C1=C(C)NC(C)=C(C(=O)OC(C)C)C1c1cccc2nonc12 (configuration not stated) [ISRADIPINE]

>  <target_or_test_system>
Candida albicans

>  <class_label>
True

$$$$
>  <compound>
Cc1ccc2nc(Cl)c(CNCc3cccs3)cc2c1

>  <target_or_test_system>
Candida albicans

>  <class_label>
False

$$$$
>  <compound>
O=C(C(Cc1c[nH]c2ccccc12)NS(=O)(=O)c1ccc(Cl)cc1)N1CCCCC1 (configuration not stated)

>  <target_or_test_system>
Candida albicans

>  <class_label>
False

$$$$
>  <compound>
COc1cc2ncnc(NC3CCN(Cc4ccccc4)CC3)c2cc1OC

>  <target_or_test_system>
Candida albicans

>  <class_label>
False

$$$$
>  <compound>
CCC(C)NC(=O)c1ccc(NC(=O)C2(c3ccccc3)CCCC2)cc1 (configuration not stated)

>  <target_or_test_system>
Candida albicans

>  <class_label>
False

$$$$
>  <compound>
C[C@H](c1ccc2c(c1)CCCC2)N(C)c1ncc2c(N)nc(N)nc2n1

>  <target_or_test_system>
Candida albicans

>  <class_label>
False

$$$$
>  <compound>
CC(C)(C)n1nc(-c2ccccc2)c2c(N)ncnc21

>  <target_or_test_system>
Candida albicans

>  <class_label>
False

$$$$
>  <compound>
CNc1cc(C)nc(C2CN(C(=O)c3n[nH]c4ccccc34)CCO2)c1 (configuration not stated)

>  <target_or_test_system>
Candida albicans

>  <class_label>
False

$$$$
>  <compound>
CCOC(=O)c1cc(-c2csc(Nc3c(C)cc(C)cc3C)n2)on1

>  <target_or_test_system>
Candida albicans

>  <class_label>
False

$$$$
>  <compound>
CN(C)CCNC(=O)N1CCCN(c2ncnc3cc(-c4ccccc4)sc23)CC1

>  <target_or_test_system>
Candida albicans

>  <class_label>
False

$$$$
>  <compound>
COc1nc2ccc(Br)cc2cc1[C@@H](c1ccccc1)[C@@](O)(CCN(C)C)c1cccc2ccccc12.O=C(O)C(F)(F)F

>  <target_or_test_system>
Candida albicans

>  <class_label>
True

$$$$
>  <compound>
OCc1ccc(-c2cncc(Nc3cccc(Cl)c3)c2)cc1

>  <target_or_test_system>
Candida albicans

>  <class_label>
True

$$$$
